These measurements were taken from patent US20100190225A1.

Biological target: psicose 3-epimerase (Agrobacterium fabrum, UniProt A9CH28)
Construct: made in house; host or cells: Escherichia coli BL21(DE3)
Format: biochemical
Conditions: 1 mM metal ion added or EDTA treatment; 1.0% D-fructose, pH 7.5, 50° C., 20 minutes; None = 100
Property: Relative activity (%)
Give bare numbers, in %.

// below: answered compounds
>  <Smiles Record>
[Mo+2]

>  <Relative activity (%)>
93.3

$$$$
>  <Smiles Record>
[Mn+2]

>  <Relative activity (%)>
274

$$$$
>  <Smiles Record>
[Mg+2]

>  <Relative activity (%)>
100

$$$$

For each listed entry, give its Relative activity (%).
1. [Ca+2]
2. [Zn+2]

Marked response:
64.4
4.4

For each listed entry, give its Relative activity (%).
1. O=C(O)CN(CCN(CC(=O)O)CC(=O)O)CC(=O)O
2. [Fe+3]

Marked response:
1. 20.0
2. 121

For each listed entry, give its Relative activity (%).
1. [Ba+2]
2. [Cu+2]
3. [Co+2]

Marked response:
1: 95.6; 2: 2.2; 3: 268

Exam item: Record [Al+3] : what is its Relative activity (%) with psicose 3-epimerase (Agrobacterium fabrum, UniProt A9CH28)?
Marked response: 100

====

Consider the following compounds; for each one, report its Relative activity (%) Mn^2+ added.
Target: psicose 3-epimerase (Agrobacterium fabrum)
Construct: made in house; host or cells: Escherichia coli BL21(DE3)
Experiment: Substrate specificity of psicose 3-epimerase
Assay type: biochemical
Conditions: 10 mM monosaccharide as substrate, pH 7.5, 50° C., 20 minutes, Mn^2+ added
Description: In the current Experimental Example, MALDI-TOF-MS was used for the measurement of the molecular weight of psicose 3-epimerase, and cinnamic acid was used as a matrix. The enzyme activity was measured by using D-fructose as a substrate. […] The concentrations of D-fructose, D-psicose, D-sorbose, D-tagatose, D-xylulose and D-ribulose were measured using a high pressure liquid chromatography system with a BP-100 calcium ion […] column and an RI detector. […]
Numbers only, in %.

>  <Compound>
O=C(CO)[C@@H](O)[C@H](O)CO

>  <Property>
Relative activity (%) Mn^2+ added

>  <Value Observed>
12.4

$$$$

For each listed entry, give its Relative activity (%) Mn^2+ added.
1. O=C(CO)[C@@H](O)[C@H](O)[C@H](O)CO
2. O=C(CO)[C@H](O)[C@@H](O)[C@H](O)CO

Marked response:
139
1.7

For each listed entry, give its Relative activity (%) Mn^2+ added.
1. O=C(CO)[C@@H](O)[C@@H](O)[C@H](O)CO
2. O=C(CO)[C@H](O)[C@H](O)[C@H](O)CO
3. O=C(CO)[C@@H](O)[C@H](O)[C@H](O)COP(=O)(O)O [D-Fructose-6-phosphate]
4. O=C(CO)[C@H](O)[C@H](O)COP(=O)(O)O [D-Ribulose-5-phosphate]
5. O=C(CO)[C@H](O)[C@H](O)CO

Marked response:
[92.3, 274, 0.0, 0.0, 15.4]

====

Target: psicose 3-epimerase (Agrobacterium fabrum)
Construct: made in house; host or cells: Escherichia coli BL21(DE3)
Experiment: Substrate specificity of psicose 3-epimerase
Assay type: biochemical
Details: 10 mM monosaccharide as substrate, pH 7.5, 50° C., 20 minutes
Values of Relative activity (%) No metal ion added greater than or equal to 10% map to yes; values below map to no.

Field: example entries. Status: answers known.
>  <Compound>
O=C(CO)[C@@H](O)[C@H](O)[C@H](O)CO

>  <Experimental System>
psicose 3-epimerase (Agrobacterium fabrum)

>  <Qualitative Label>
yes

$$$$
>  <Compound>
O=C(CO)[C@@H](O)[C@H](O)CO

>  <Experimental System>
psicose 3-epimerase (Agrobacterium fabrum)

>  <Qualitative Label>
no

$$$$
>  <Compound>
O=C(CO)[C@H](O)[C@@H](O)[C@H](O)CO

>  <Experimental System>
psicose 3-epimerase (Agrobacterium fabrum)

>  <Qualitative Label>
no

$$$$
>  <Compound>
O=C(CO)[C@@H](O)[C@H](O)[C@H](O)COP(=O)(O)O [D-Fructose-6-phosphate]

>  <Experimental System>
psicose 3-epimerase (Agrobacterium fabrum)

>  <Qualitative Label>
no

$$$$
>  <Compound>
O=C(CO)[C@H](O)[C@H](O)COP(=O)(O)O [D-Ribulose-5-phosphate]

>  <Experimental System>
psicose 3-epimerase (Agrobacterium fabrum)

>  <Qualitative Label>
no

$$$$
>  <Compound>
O=C(CO)[C@@H](O)[C@@H](O)[C@H](O)CO

>  <Experimental System>
psicose 3-epimerase (Agrobacterium fabrum)

>  <Qualitative Label>
yes

$$$$

Please look at the following compound next.
Exam item: Is reported Relative activity (%) No metal ion added greater than or equal to 10% here: O=C(CO)[C@H](O)[C@H](O)[C@H](O)CO
Marked response: yes
